Data origin, for the record: patent US7601746B2

# target.system: human TPO receptor (hTPOR) (Homo sapiens, UniProt P40238)
# Construct: expressed in transfected cells; host or cells: BaF-B03 (murine IL-3 dependent cell line)
# Sequence (P40238 26-635): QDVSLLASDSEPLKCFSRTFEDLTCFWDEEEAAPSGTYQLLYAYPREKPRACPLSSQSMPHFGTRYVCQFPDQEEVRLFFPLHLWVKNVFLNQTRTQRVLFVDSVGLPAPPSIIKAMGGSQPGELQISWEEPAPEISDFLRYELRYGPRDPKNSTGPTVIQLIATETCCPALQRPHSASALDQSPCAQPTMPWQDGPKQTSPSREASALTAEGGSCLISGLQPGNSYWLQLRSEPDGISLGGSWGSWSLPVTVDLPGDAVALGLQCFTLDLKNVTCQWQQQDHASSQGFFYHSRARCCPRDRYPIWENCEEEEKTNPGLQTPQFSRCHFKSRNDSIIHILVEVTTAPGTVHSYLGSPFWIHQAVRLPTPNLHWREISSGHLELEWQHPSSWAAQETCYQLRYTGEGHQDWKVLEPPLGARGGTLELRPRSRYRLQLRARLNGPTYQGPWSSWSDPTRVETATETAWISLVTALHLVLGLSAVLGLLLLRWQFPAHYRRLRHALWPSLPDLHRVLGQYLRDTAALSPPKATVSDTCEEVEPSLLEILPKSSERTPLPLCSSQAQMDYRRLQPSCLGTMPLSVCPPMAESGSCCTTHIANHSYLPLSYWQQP
# test.protocol: Thrombopoietic activity: proliferation of TPO dependent BaF/hTPOR cells (WST-1, absorbance at 450 nm)
# Type: cell-based
# condition.info: 20 h + 4 h WST-1, ED50 = half concentration of the concentration showing the maximum thrombopoietic activity, Table 1
measured.property: pEC50
Conceptually, pEC50 converts a concentration in mol/L into minus its log10.

Example compounds with recorded pEC50:
{"columns": ["compound", "target.system", "pEC50"],
 "data": [
  ["CCCCCCOC(CC)c1cccc(-c2csc(NC(=O)c3cc(Cl)c(C=C(C)C(=O)O)c(Cl)c3)n2)c1F (stereo not shown)", "human TPO receptor (hTPOR) (Homo sapiens, UniProt P40238)", 9.14],
  ["CCCCCCCCCC(OC)c1cccc(-c2csc(NC(=O)c3cc(Cl)c(C=C(C)C(=O)O)c(Cl)c3)n2)c1F (stereo not shown)", "human TPO receptor (hTPOR) (Homo sapiens, UniProt P40238)", 9.12],
  ["CCCCCCCOCc1cccc(-c2csc(NC(=O)c3cc(F)c(/C=C(\\C)C(=O)O)c(F)c3)n2)c1OC", "human TPO receptor (hTPOR) (Homo sapiens, UniProt P40238)", 7.92],
  ["CC(=Cc1c(Cl)cc(C(=O)Nc2nc(-c3cccc(CCCOC(C)C)c3F)cs2)cc1Cl)C(=O)O", "human TPO receptor (hTPOR) (Homo sapiens, UniProt P40238)", 9.01],
  ["COC(=Cc1c(F)cc(C(=O)Nc2nc(-c3cccc(COCC(C)(C)C)c3OC)cs2)cc1F)C(=O)O (stereo in doubt)", "human TPO receptor (hTPOR) (Homo sapiens, UniProt P40238)", 7.96]
]}

Challenge: Query pEC50 on human TPO receptor (hTPOR) (Homo sapiens, UniProt P40238) for COC(CCc1cccc2c1CCc1sc(NC(=O)c3cc(F)c(C=C(C)C(=O)O)c(F)c3)nc1-2)C(C)(C)C (stereo not shown)
Response given: 8.74

Challenge: Query pEC50 on human TPO receptor (hTPOR) (Homo sapiens, UniProt P40238) for CCCCCOC(CCSC)c1cccc(-c2csc(NC(=O)c3cc(F)c(C=C(C)C(=O)O)c(F)c3)n2)c1F (stereo not shown)
Response given: 9.11

###

# target.system: human TPO receptor (hTPOR) (Homo sapiens, UniProt P40238)
# Construct: expressed in transfected cells; host or cells: BaF-B03 (murine IL-3 dependent cell line)
# test.protocol: Thrombopoietic activity: proliferation of TPO dependent BaF/hTPOR cells (WST-1, absorbance at 450 nm)
# Assay type: cell-based
# condition.info: 20 h + 4 h WST-1, ED50 = half concentration of the concentration showing the maximum thrombopoietic activity, Table 1
measured.property: EC50
Respond with the figure and its unit, in that order.

Challenge: Give the measured EC50 of CC(=Cc1c(F)cc(C(=O)Nc2nc3c(s2)CCc2c(CCC(C)(C)C)cccc2-3)cc1F)C(=O)O .
Response given: 4 nM

Challenge: Give the measured EC50 of CCCCCOC(CC)c1cccc(-c2csc(NC(=O)c3cc(Cl)c(C=C(C)C(=O)O)c(Cl)c3)n2)c1F (centres unmarked) .
Response given: 0.48 nM

Challenge: Give the measured EC50 of CCCCOCCCc1cccc(-c2csc(NC(=O)c3cc(F)c(C=C(C)C(=O)O)c(F)c3)n2)c1F .
Response given: 1.3 nM

Challenge: Give the measured EC50 of CCCCCC(OC)c1cccc(-c2csc(NC(=O)c3cc(Cl)c(C=C(C)C(=O)O)c(Cl)c3)n2)c1F (centres unmarked) .
Response given: 1.5 nM

Challenge: Give the measured EC50 of CCCCCCCCC(OC)c1cccc(-c2csc(NC(=O)c3cc(F)c(C=C(C)C(=O)O)c(F)c3)n2)c1F (centres unmarked) .
Response given: 0.79 nM

Challenge: Give the measured EC50 of CCCCCOC(C)c1cccc(-c2csc(NC(=O)c3cc(F)c(C=C(C)C(=O)O)c(F)c3)n2)c1F (centres unmarked) .
Response given: 0.85 nM

Challenge: Give the measured EC50 of CCC(CC)COCCCc1cccc(-c2csc(NC(=O)c3cc(Cl)c(C=C(C)C(=O)O)c(Cl)c3)n2)c1F .
Response given: 3.11 nM

Challenge: Give the measured EC50 of COc1c(COCCC(C)C)cccc1-c1csc(NC(=O)c2cc(Cl)c(/C=C(\C)C(=O)O)c(Cl)c2)n1 .
Response given: 11.4 nM

Challenge: Give the measured EC50 of CCCOC(CCC)c1cccc(-c2csc(NC(=O)c3cc(F)c(C=C(C)C(=O)O)c(F)c3)n2)c1F (centres unmarked) .
Response given: 0.99 nM

###

pEC50 listing for selected compounds.
# target.system: human TPO receptor (hTPOR) (Homo sapiens, UniProt P40238)
# Construct: expressed in transfected cells; host or cells: BaF-B03 (murine IL-3 dependent cell line)
# test.protocol: Thrombopoietic activity: proliferation of TPO dependent BaF/hTPOR cells (WST-1, absorbance at 450 nm)
# Type: cell-based
# condition.info: 20 h + 4 h WST-1, ED50 = half concentration of the concentration showing the maximum thrombopoietic activity, Table 1
Conceptually, pEC50 converts a concentration in mol/L into minus its log10.

Example compounds with recorded pEC50:
{"columns": ["compound", "target.system", "pEC50"],
 "data": [
  ["CO/C(=C\\c1c(F)cc(C(=O)Nc2nc(-c3cccc(CCOCCC(C)C)c3OC)cs2)cc1F)C(=O)O", "human TPO receptor (hTPOR) (Homo sapiens, UniProt P40238)", 7.82],
  ["CCOC(CC(C)(C)C)c1cccc(-c2csc(NC(=O)c3cc(Cl)c(C=C(C)C(=O)O)c(Cl)c3)n2)c1F (stereo not shown)", "human TPO receptor (hTPOR) (Homo sapiens, UniProt P40238)", 9.12],
  ["CCCCCCOCc1cccc(-c2csc(NC(=O)c3cc(Cl)c(/C=C(\\OC)C(=O)O)c(Cl)c3)n2)c1OC", "human TPO receptor (hTPOR) (Homo sapiens, UniProt P40238)", 7.85]
]}

Challenge: Give the measured pEC50 of CCCCCCOCCc1cccc(-c2csc(NC(=O)c3cc(F)c(/C=C(\OC)C(=O)O)c(F)c3)n2)c1OC .
Response given: 7.71

###

# target.system: human TPO receptor (hTPOR) (Homo sapiens)
# Construct: expressed in transfected cells; host or cells: BaF-B03 (murine IL-3 dependent cell line)
# Sequence (P40238 26-635): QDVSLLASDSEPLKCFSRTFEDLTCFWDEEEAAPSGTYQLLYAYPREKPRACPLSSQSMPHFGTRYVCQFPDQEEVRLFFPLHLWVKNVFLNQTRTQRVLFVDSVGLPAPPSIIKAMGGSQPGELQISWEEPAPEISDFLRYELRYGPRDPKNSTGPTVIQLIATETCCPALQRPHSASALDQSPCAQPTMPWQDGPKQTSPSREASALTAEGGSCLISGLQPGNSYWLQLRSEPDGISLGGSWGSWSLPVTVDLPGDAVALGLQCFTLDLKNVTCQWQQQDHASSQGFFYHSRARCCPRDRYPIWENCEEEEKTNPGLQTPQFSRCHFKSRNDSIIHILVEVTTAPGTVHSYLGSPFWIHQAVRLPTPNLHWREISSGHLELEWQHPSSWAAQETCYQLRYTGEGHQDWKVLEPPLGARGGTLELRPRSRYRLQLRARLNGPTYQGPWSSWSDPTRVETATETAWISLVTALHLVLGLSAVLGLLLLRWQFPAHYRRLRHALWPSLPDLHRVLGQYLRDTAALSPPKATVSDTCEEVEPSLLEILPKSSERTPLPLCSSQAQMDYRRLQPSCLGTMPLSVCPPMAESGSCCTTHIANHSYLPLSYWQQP
# test.protocol: Thrombopoietic activity: proliferation of TPO dependent BaF/hTPOR cells (WST-1, absorbance at 450 nm)
# Assay type: cell-based
# condition.info: 20 h + 4 h WST-1, ED50 = half concentration of the concentration showing the maximum thrombopoietic activity, Table 1
measured.property: EC50 (nM)
State the answer as a number, implicitly in nM.

Example molecules with recorded EC50:
{"columns": ["molecule", "unit", "recorded.measurement"],
 "data": [
  ["CCCCCCCCCC(OC)c1cccc(-c2csc(NC(=O)c3cc(F)c(/C=C(\\C)C(=O)O)c(F)c3)n2)c1OC (stereo not shown)", "nM", 3.2],
  ["CO/C(=C\\c1c(Cl)cc(C(=O)Nc2nc(-c3cccc(COCC(C)(C)C)c3OC)cs2)cc1Cl)C(=O)O", "nM", 15.6],
  ["CCC(CC)COCCc1cccc(-c2csc(NC(=O)c3cc(Cl)c(/C=C(\\C)C(=O)O)c(Cl)c3)n2)c1OC", "nM", 7.57]
]}

Challenge: Give the measured EC50 of CC(=Cc1c(F)cc(C(=O)Nc2nc(-c3cccc(CCCOCC(C)(C)C)c3F)cs2)cc1F)C(=O)O .
Response given: 0.81
